# Measured on: CRF1R
# Assay protocol: cell-based or functional assay
Ends that are not written are not given here.
The entries below are paired with their reported CRF1R EC50.
Quick note: give the figure in nM, leave out the unit.

For orientation, consider the following solved cases.
SQEPPISLDLPLGLLREVLEMTKADQLAQQAHSNRKLLDIA-NH2 [SEQ ID NO 90] ... 100
IVLSLDVPIGLLQILLEQARARAAREQATTQARILARV-NH2 [SEQ ID NO 9] ... 100
SQEPPISLDLPFELLREVLEMTKADQLAQQAHSNRKLLDIA-NH2 [SEQ ID NO 97] ... 100
ZGPPISIDLSLELLRKMIEIEKQEKEKQQAANNALLLATI (C-terminal amide) [SEQ ID NO 30] ... 100

Switching to the query record.
Qu. Would you mind telling me what CRF1R EC50 value was observed for DNPSLSIDLPFQLLRTLLELARTQSQRERAEQNAIIFASV-NH2 [SEQ ID NO 182] ?
Ans. 409
